# Test system: human red blood cells (hRBCs)
# Format: cell-based
# assay-context: red cells of human, 1 h
Residues, ends and D or L forms follow the SMILES beside them. *: point of attachment. Lauroyl = CCCCCCCCCCCC(=O)*; Decanoyl = CCCCCCCCCC(=O)*
result-type: HC50 (µM)
Quick reminder: number only, in µM, skip the unit.

compound: CCCCCCCCCCCC(=O)N[C@@H](CCCCN)C(=O)N[C@@H](CCCNC(=N)N)C(=O)N[C@H](C(=O)N[C@@H](Cc1c[nH]c2ccccc12)C(=O)N[C@@H](CCC(N)=O)C(=O)N[C@@H](CCCNC(=N)N)C(N)=O)[C@@H](C)CC [Peptide C12-KR6] (Lauroyl-KRIWQR-NH2)
HC50 / µM: 75

Could you now look at the following compound, please?
(Q) Which value of HC50 has been reported for CCCCCCCCCC(=O)N[C@@H](CCCCN)C(=O)N[C@@H](CCCNC(=N)N)C(=O)N[C@H](C(=O)N[C@@H](Cc1c[nH]c2ccccc12)C(=O)N[C@@H](CCC(N)=O)C(=O)N[C@@H](CCCNC(=N)N)C(=O)N[C@H](C(=O)N[C@@H](CCCCN)C(=O)N[C@@H](CC(=O)O)C(=O)N[C@@H](Cc1ccccc1)C(N)=O)[C@@H](C)CC)[C@@H](C)CC [Peptide C10-KR10] (Decanoyl-KRIWQRIKDF-NH2) in the records?
(A) 50
